Hi there, I'd appreciate the recorded melting point for every entry that follows.

Input line: What value of measured melting point is listed for COc1ccc(-c2cc(CN(C)C)c(=O)n(CCCc3ccc(F)cc3)n2)cc1F ?
Output line: 97 to 100 °C

Input line: What value of measured melting point is listed for Cc1ccc(-c2cc(CN)c(=O)n(CC(C)C)n2)cc1 ?
Output line: 74.9 to 77.9 °C

Input line: What value of measured melting point is listed for Cc1cc(-c2cc(CN(C)C)c(=O)n(Cc3ccccc3)n2)ccc1F.Cl ?
Output line: 225.3 to 226 °C

Input line: What value of measured melting point is listed for Cc1cc(-c2cc(CN3CCNCC3)c(=O)n(CC=Cc3ccc(Cl)cc3)n2)ccc1F.Cl.Cl ?
Output line: 186.7 to 197 °C (dec.)

Input line: What value of measured melting point is listed for Cc1cc(-c2cc(CN3CCN(C)CC3)c(=O)n(Cc3ccccc3)n2)ccc1F.Cl.Cl ?
Output line: 240 to 242.5 °C (dec.)

Input line: What value of measured melting point is listed for COc1ccc(-c2cc(CN)c(=O)n(Cc3ccc(Cl)cc3)n2)cc1F ?
Output line: 128.5 to 131.4 °C

Input line: What value of measured melting point is listed for CC(C)Cn1nc(-c2ccc(-c3ccccc3)cc2)cc(CN2CCNCC2)c1=O.Cl.Cl ?
Output line: 226.8 to 228 °C

Input line: What value of measured melting point is listed for CC(C)Cn1nc(-c2ccc(-c3ccccc3)cc2)cc(CN2CCN(C)CC2)c1=O.Cl.Cl ?
Output line: 262.2 to 263.6 °C

Input line: What value of measured melting point is listed for CC(C)Cn1nc(-c2ccc(S(C)(=O)=O)cc2)cc(CN(C)C)c1=O.Cl ?
Output line: 221.4 to 223.3 °C

Input line: What value of measured melting point is listed for Cc1cc(-c2cc(CN(C)C)c(=O)n(CC=Cc3ccccc3)n2)ccc1F.Cl ?
Output line: 183.6 to 184.5 °C

Input line: What value of measured melting point is listed for Cc1cc(-c2cc(CN3CCNCC3)c(=O)n(Cc3ccccc3)n2)ccc1F.Cl.Cl ?
Output line: 162.7 to 180.7 °C (dec.)

Input line: What value of measured melting point is listed for Cc1cc(-c2cc(CCCN)c(=O)n(Cc3ccccc3Cl)n2)ccc1F ?
Output line: 80 to 85 °C

Input line: What value of measured melting point is listed for Cc1cc(-c2cc(CN3CCNCC3)c(=O)n(CC=Cc3ccccc3)n2)ccc1F.Cl.Cl ?
Output line: 171.1 to 187.1 °C (dec.)

Input line: What value of measured melting point is listed for Cc1c(-c2ccc(C(F)(F)F)cc2)nn(CC(C)C)c(=O)c1N1CCN(C)CC1.Cl.Cl ?
Output line: 249.9 to 252.8 °C

Input line: What value of measured melting point is listed for Cc1ccc(-c2cc(CN(C)C)c(=O)n(CC(C)C)n2)cc1F.Cl ?
Output line: 246.5 to 248.5 °C

Input line: What value of measured melting point is listed for Cc1ccc(-c2cc(CNC(CO)CO)c(=O)n(CC(C)C)n2)cc1 ?
Output line: 134.1 to 135.2 °C

Input line: What value of measured melting point is listed for COc1ccc(-c2cc(CN3CCN(C)CC3)c(=O)n(Cc3ccc(F)c(F)c3)n2)cc1F ?
Output line: 135.4 to 136 °C

Input line: What value of measured melting point is listed for Cc1cc(-c2cc(CN)c(=O)n(Cc3ccccc3Cl)n2)ccc1F ?
Output line: 97.6 to 102.2 °C

Input line: What value of measured melting point is listed for COc1ccc(-c2cc(CN3CCNCC3)c(=O)n(CC3CC3)n2)cc1F ?
Output line: 111.5 to 118 °C

Input line: What value of measured melting point is listed for Cc1c(-c2ccccc2)nn(CC(C)C)c(=O)c1N1CCNCC1.Cl.Cl ?
Output line: 154.3 to 159.5 °C

Input line: What value of measured melting point is listed for COc1ccc(-c2cc(CN3CCNCC3)c(=O)n(Cc3ccc(F)cc3)n2)cc1F ?
Output line: 142 to 143 °C

Input line: What value of measured melting point is listed for Cc1cc(-c2cc(CN3CCN(C)CC3)c(=O)n(Cc3ccc(Cl)cc3)n2)ccc1F ?
Output line: 133.3 to 133.8 °C

Input line: What value of measured melting point is listed for Cc1cc(-c2cc(CN)c(=O)n(Cc3ccccc3Cl)n2)ccc1F.Cl ?
Output line: 201.9 to 206.4 °C

Input line: What value of measured melting point is listed for CSc1ccc(-c2cc(CN3CCN(C)CC3)c(=O)n(CC3CC3)n2)cc1.Cl.Cl ?
Output line: 234.6 to 239.2 °C

Input line: What value of measured melting point is listed for COc1ccc(-c2cc(CN3CCNCC3)c(=O)n(CC(C)C)n2)cc1F.Cl.Cl ?
Output line: 163 to 177 °C (dec.)

Input line: What value of measured melting point is listed for CC(C)Cn1nc(-c2ccc(S(C)(=O)=O)cc2)cc(CN2CCNCC2)c1=O.Cl.Cl ?
Output line: 222.4 to 224.2 °C

Input line: What value of measured melting point is listed for COc1ccc(-c2cc(CN(C)C)c(=O)n(Cc3ccc(Cl)cc3)n2)cc1F ?
Output line: 95.3 to 96.7 °C

Input line: What value of measured melting point is listed for CC(C)Cn1nc(-c2ccc(S(C)(=O)=O)cc2)cc(CN2CCN(C)CC2)c1=O.Cl.Cl ?
Output line: 224.5 to 228 °C

Input line: What value of measured melting point is listed for CC(C)Cn1nc(-c2ccc([S+](C)[O-])cc2)cc(CN(C)C)c1=O.Cl (stereo not shown) ?
Output line: 204.2 to 206 °C

Input line: What value of measured melting point is listed for Cc1cc(-c2cc(CN3CCN(C)CC3)c(=O)n(CC=Cc3ccc(Cl)cc3)n2)ccc1F.Cl.Cl ?
Output line: 229.7 to 243.3 °C (dec.)

Input line: What value of measured melting point is listed for COc1ccc(-c2cc(CN(C)C)c(=O)n(CC(C)C)n2)cc1F.Cl ?
Output line: 212.4 to 212.8 °C

Input line: What value of measured melting point is listed for CC(C)Cn1nc(-c2ccc([S+](C)[O-])cc2)cc(CN2CCN(C)CC2)c1=O.Cl.Cl (stereo not shown) ?
Output line: 224.5 to 229.1 °C (dec.)

Input line: What value of measured melting point is listed for COc1ccc(-c2cc(CN)c(=O)n(CCCc3ccc(F)cc3)n2)cc1F ?
Output line: 82 to 84 °C

Input line: What value of measured melting point is listed for Cc1cc(-c2cc(CN(C)C)c(=O)n(CC=Cc3ccc(Cl)cc3)n2)ccc1F.Cl ?
Output line: 201.3 to 201.9 °C

Input line: What value of measured melting point is listed for CC(C)Cn1nc(-c2ccc(F)c(F)c2)cc(CN(C)C)c1=O.Cl ?
Output line: 226.5 to 227.7 °C

Input line: What value of measured melting point is listed for COc1ccc(-c2cc(CN3CCN(C)CC3)c(=O)n(CC(C)C)n2)cc1F.Cl.Cl ?
Output line: 236.9 to 237 °C

Input line: What value of measured melting point is listed for CC(C)Cn1nc(-c2ccc(F)c(F)c2)cc(CN2CCN(C)CC2)c1=O.Cl.Cl ?
Output line: 242.5 to 243.4 °C
